- experimental.details: Vero cells viability counterscreen for qRT-PCR qHTS assay of selected Zika virus inhibitors
- test.parameters: CellTiter-Glo ATP luminescence, 24 h; series mostly up to 41.8 µM
Inconclusive results are not listed. Active and inactive are the calls of the source. Calls follow the shape of the dose curve; as a rule, active = well fitted cell-killing curve with a large enough effect; inconclusive = small, poorly fitted or top-dose-only effect, or another doubt; inactive = flat fitted curve, though single readings scatter.
Labels: active, inactive

[[record]]
smiles_record = "O=C(O)c1ccc(-n2nc(-c3ccccc3O)nc2-c2ccccc2O)cc1"
qualitative_label = "inactive"

[[record]]
smiles_record = "CCc1oc2ccccc2c1C(=O)c1cc(Br)c(O)c(Br)c1"
qualitative_label = "inactive"

[[record]]
smiles_record = "O=C1NC(=O)/C(=C/c2cccc(C(F)(F)F)c2)S1"
qualitative_label = "inactive"

[[record]]
smiles_record = "CC[C@H](C)[C@H]1O[C@]2(CC[C@@H]1C)C[C@@H]1C[C@@H](C/C=C(\\C)[C@@H](O[C@H]3C[C@H](OC)[C@@H](O[C@H]4C[C@H](OC)[C@@H](O)[C@H](C)O4)[C@H](C)O3)[C@@H](C)/C=C/C=C3\\CO[C@@H]4[C@H](O)C(C)=C[C@@H](C(=O)O1)[C@]34O)O2"
qualitative_label = "active"

[[record]]
smiles_record = "Cc1cccc(C)c1NS(=O)(=O)c1ccc(NS(=O)(=O)c2ccc3c(c2)OCCO3)cc1"
qualitative_label = "inactive"

[[record]]
smiles_record = "O=C(O)Cc1cc(I)c(Oc2ccc(O)c(I)c2)c(I)c1"
qualitative_label = "inactive"

[[record]]
smiles_record = "COc1cc(Nc2nc3ccccc3nc2NS(=O)(=O)c2cccc(NC(=O)c3ccc(C)c(OC)c3)c2)cc(OC)c1"
qualitative_label = "inactive"

[[record]]
smiles_record = "CC1(C)CCC(C)(C)c2cc3c(cc21)Sc1ccccc1N=C3c1ccc(C(=O)O)cc1"
qualitative_label = "inactive"

